system: SR leukemia; assay: NCI tumour cell line growth inhibition, 48 h
Measured TGI accompanies every entry in the list below.

Solved entries:
{"compound": "O=c1[nH]nc(-c2ccccc2)n1/N=C\\c1ccccc1", "systemName": "SR leukemia", "TGI": "> 100 µM"}
{"compound": "Cc1ccccc1C1OC(=O)c2ccc3ccccc3c21 (centres undefined)", "systemName": "SR leukemia", "TGI": "7.96 µM"}
{"compound": "CC(C)(C)C(=O)OCC1C(=O)OCC1C(=O)N1Cc2cc3ccccc3nc2C1 (centres undefined)", "systemName": "SR leukemia", "TGI": "3.77 µM"}
{"compound": "Cc1cc(S(=O)(=O)N/C(=C(\\C#N)C(=O)c2ccc(Cl)cc2)[n+]2ccc(N(C)C)cc2)c([S-])cc1Cl", "systemName": "SR leukemia", "TGI": "> 100 µM"}
{"compound": "COC(=O)C1(Cc2ccc3c(c2)CCC3)Cc2ccccc2C1O (centres undefined)", "systemName": "SR leukemia", "TGI": "75.9 µM"}

--- query ---
Problem: // TGI lookup, key: "COc1ccc2c(c1)C(=O)c1ccc(OC)cc1C2=S"
Solution: > 100 µM

###

test system: MDA-MB-231 breast; assay: NCI tumour cell line growth inhibition, 48 h; in the data active = GI50 below about 0.43 µM; inactive = the rest
Please answer using one outcome listed in active, inactive

// below: answered compounds
{"smilesRepr": "Cc1ccc(S(=O)(=O)c2c(COC(=O)c3cccc(C)c3)c(-c3ccccc3)nn2C)cc1", "classLabel": "inactive"}
{"smilesRepr": "CCCCOC(=O)N1CCN(/[N+]([O-])=N/Oc2ccc([N+](=O)[O-])cc2[N+](=O)[O-])CC1", "classLabel": "inactive"}
{"smilesRepr": "COc1ccc2c(CN3CCCC[C@H]3C(=O)O)cc3cc4c(cc3c2c1)OCO4", "classLabel": "inactive"}
{"smilesRepr": "CCNCCCn1c2c(c3ccc(Cl)cc3c1=O)C(=O)c1cc(OC)cnc1-2", "classLabel": "inactive"}
{"smilesRepr": "CN1CCN(C(=O)C(C)(C)c2ccc(C(=O)Nc3cn4cc(-c5ccncc5)ccc4n3)cc2)CC1", "classLabel": "active"}
{"smilesRepr": "NCCCC[C@@H]1NC(=O)[C@H]2CCCN2C(=O)[C@H](Cc2ccccc2)CNC(=O)[C@H](Cc2ccccc2)NC1=O", "classLabel": "inactive"}

Problem: I'd appreciate the recorded outcome for "Cc1c(Cl)cccc1C(=O)Nc1nc2c(s1)CN(C(=O)c1ccc(C(F)(F)F)cc1)CC2" from this test.
Solution: active

Problem: Give the logged outcome of this assay for the following compound: "Cc1cc(F)ccc1S(=O)(=O)Nc1cc(-c2c(O)ccc3ccccc23)c(O)c2ccccc12"
Solution: inactive

###

test system: HCT-116 colon; test: NCI tumour cell line growth inhibition, 48 h
propertyMeasured: TGI

{"smilesRepr": "COc1cc2c[n+](C)c3c4cc(OC)c(OC(C)C)cc4ccc3c2cc1OC", "TGI": "> 100 µM"}

Problem: Need TGI, item "CSCSSC"
Solution: > 100 µM

Problem: Value lookup for TGI; key = "CCNC(=S)N=Nc1c(O)[nH]c2ccc([N+](=O)[O-])cc12"
Solution: > 100 µM

###

tested on: M19-MEL melanoma; experiment: NCI tumour cell line growth inhibition, 48 h
propertyMeasured: TGI

{"compound": "O=C(O)CC[C@H](NC(=O)c1ccc(-n2nc3ccc(O)cc3nc2=O)cc1)C(=O)O", "TGI": "> 100 µM"}
{"compound": "N/N=C(/C(=O)Nc1cccc(Cl)c1)C(C(=O)c1ccc(O)cc1O)C1OC(=O)c2ccccc21 (centres undefined)", "TGI": "> 100 µM"}

Problem: Suppose we examine the compound "O=C1/C(=C/c2ccccc2)CN(C(=O)CCN2CCOCC2)C/C1=C\c1ccccc1" ; what TGI value has been reported?
Solution: 4.06 µM

Problem: Please look up its TGI: "CC(=O)Nc1ccc(S(=O)(=O)N/N=C/CN2C(=O)c3ccccc3C2=O)cc1"
Solution: > 100 µM

Problem: So what's the measured TGI for this one? "C/C=C/c1cc(=O)c([C@@H]2OC(=O)c3cc(OC)cc(OC)c32)co1"
Solution: > 100 µM

Problem: Could you share which TGI value was measured for "CCOC(=O)/C(C1=NCCN1)=C(\O)c1ccccc1" ?
Solution: > 100 µM

Problem: What value of measured TGI is listed for "O=S(=O)(/C=C/c1ccc(F)cc1)Cc1ccc(CS(=O)(=O)/C=C/c2ccc(F)cc2)cc1" ?
Solution: > 100 µM

Problem: Quick one: TGI of Cc1ccccc1C1OC(=O)c2ccc3ccccc3c21 (centres undefined) ?
Solution: 11.4 µM

Problem: Given the compound "C=Cc1cncc(C#N)c1CCc1c(C#N)cncc1C=C" , what is its reported TGI?
Solution: > 100 µM
